The entries below are paired with their reported Kd.
Target: Gal-1 (Homo sapiens, UniProt P09382)
Construct: made in house; host or cells: E. coli BL21(DE3)
Sequence (P09382 whole entry): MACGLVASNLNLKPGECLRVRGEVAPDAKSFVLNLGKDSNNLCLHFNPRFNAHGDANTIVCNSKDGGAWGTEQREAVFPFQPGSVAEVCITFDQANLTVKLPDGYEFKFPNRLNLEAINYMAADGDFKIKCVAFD
Assay: Pull-down assay with immobilized protein and LSM libraries
Assay type: binding
Conditions: H14 library; 1:1 binding assumed; read-out: Surface mapping KD (apparent)
observationType: Kd (µM)

1. CC(C)C[C@@H](CC(=O)N[C@H]1CCCC[C@@H]1C(N)=O)NC(=O)[C@H]1CCCC[C@@H]1NC(=O)[C@H]1CCCC[C@@H]1NC(=O)C[C@@H](NC(=O)[C@H]1CCCC[C@@H]1N)[C@@H](C)O [H14 TL]    175
2. C[C@@H](O)[C@@H](CC(=O)N[C@H]1CCCC[C@@H]1C(N)=O)NC(=O)[C@H]1CCCC[C@@H]1NC(=O)[C@H]1CCCC[C@@H]1NC(=O)C[C@H](CC(N)=O)NC(=O)[C@H]1CCCC[C@@H]1N [H14 NT]    350
3. C[C@@H](O)[C@@H](CC(=O)N[C@H]1CCCC[C@@H]1C(=O)N[C@H]1CCCC[C@@H]1C(=O)N[C@@H](CC(N)=O)CC(=O)N[C@H]1CCCC[C@@H]1C(N)=O)NC(=O)[C@H]1CCCC[C@@H]1N [H14 TN]    275

====

Target: S100B (Homo sapiens, UniProt P04271)
Construct: made in house; host or cells: Escherichia coli BL21(DE3)
Sequence (P04271 whole entry): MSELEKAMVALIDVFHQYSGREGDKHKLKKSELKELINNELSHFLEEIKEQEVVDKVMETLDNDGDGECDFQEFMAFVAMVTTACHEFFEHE
Assay: Pull-down assay with immobilized protein and LSM libraries
Type: binding
Conditions: H12 library; 1:1 binding assumed; read-out: Surface mapping KD (apparent)
pKd: −log10 of the molar value.
observationType: pKd

1. C[C@@H](O)[C@@H](CC(=O)N[C@H]1CCC[C@@H]1C(=O)N[C@H]1CCC[C@@H]1C(N)=O)NC(=O)[C@H]1CCC[C@@H]1NC(=O)[C@H]1CCC[C@@H]1NC(=O)C[C@H](Cc1c[nH]c2ccccc12)NC(=O)[C@H]1CCC[C@@H]1NC(=O)[C@H]1CCC[C@@H]1N    4.25
2. CC(C)C[C@@H](CC(=O)N[C@H]1CCC[C@@H]1C(=O)N[C@H]1CCC[C@@H]1C(=O)N[C@@H](CC(N)=O)CC(=O)N[C@H]1CCC[C@@H]1C(=O)N[C@H]1CCC[C@@H]1C(N)=O)NC(=O)[C@H]1CCC[C@@H]1NC(=O)[C@H]1CCC[C@@H]1N    3.58
3. CC[C@H](C)[C@@H](CC(=O)N[C@H]1CCC[C@@H]1C(=O)N[C@H]1CCC[C@@H]1C(=O)N[C@H](CC(=O)N[C@H]1CCC[C@@H]1C(=O)N[C@H]1CCC[C@@H]1C(N)=O)Cc1ccccc1)NC(=O)[C@H]1CCC[C@@H]1NC(=O)[C@H]1CCC[C@@H]1N    4.66
4. NC(=O)C[C@@H](CC(=O)N[C@H]1CCC[C@@H]1C(=O)N[C@H]1CCC[C@@H]1C(N)=O)NC(=O)[C@H]1CCC[C@@H]1NC(=O)[C@H]1CCC[C@@H]1NC(=O)C[C@H](Cc1c[nH]c2ccccc12)NC(=O)[C@H]1CCC[C@@H]1NC(=O)[C@H]1CCC[C@@H]1N    4.26

====

The entries below are paired with their reported Kd.
Target: CaM (Bos taurus, UniProt P62157)
Construct: made in house; host or cells: E. coli BL21 (DE3)
Test: Pull-down assay with immobilized protein and LSM libraries
Assay type: binding, bovine
Details: H12 library; 1:2 stoichiometry assumed; read-out: Surface mapping KD (apparent)
observationType: Kd (µM)

1. CC(C)[C@@H](CC(=O)N[C@H]1CCC[C@@H]1C(=O)N[C@H]1CCC[C@@H]1C(N)=O)NC(=O)[C@H]1CCC[C@@H]1NC(=O)[C@H]1CCC[C@@H]1NC(=O)C[C@H](CC(N)=O)NC(=O)[C@H]1CCC[C@@H]1NC(=O)[C@H]1CCC[C@@H]1N    460
2. CSCC[C@@H](CC(=O)N[C@H]1CCC[C@@H]1C(=O)N[C@H]1CCC[C@@H]1C(=O)N[C@H](CC(=O)N[C@H]1CCC[C@@H]1C(=O)N[C@H]1CCC[C@@H]1C(N)=O)Cc1c[nH]c2ccccc12)NC(=O)[C@H]1CCC[C@@H]1NC(=O)[C@H]1CCC[C@@H]1N    42
3. NC(=O)CC[C@@H](CC(=O)N[C@H]1CCC[C@@H]1C(=O)N[C@H]1CCC[C@@H]1C(=O)N[C@H](CC(=O)N[C@H]1CCC[C@@H]1C(=O)N[C@H]1CCC[C@@H]1C(N)=O)Cc1ccc(O)cc1)NC(=O)[C@H]1CCC[C@@H]1NC(=O)[C@H]1CCC[C@@H]1N    403
4. CC[C@H](C)[C@@H](CC(=O)N[C@H]1CCC[C@@H]1C(=O)N[C@H]1CCC[C@@H]1C(N)=O)NC(=O)[C@H]1CCC[C@@H]1NC(=O)[C@H]1CCC[C@@H]1NC(=O)C[C@H](CCCNC(=N)N)NC(=O)[C@H]1CCC[C@@H]1NC(=O)[C@H]1CCC[C@@H]1N    252
5. CC[C@H](C)[C@@H](CC(=O)N[C@H]1CCC[C@@H]1C(=O)N[C@H]1CCC[C@@H]1C(=O)N[C@H](CC(=O)N[C@H]1CCC[C@@H]1C(=O)N[C@H]1CCC[C@@H]1C(N)=O)C(C)C)NC(=O)[C@H]1CCC[C@@H]1NC(=O)[C@H]1CCC[C@@H]1N    270
6. CSCC[C@@H](CC(=O)N[C@H]1CCC[C@@H]1C(=O)N[C@H]1CCC[C@@H]1C(N)=O)NC(=O)[C@H]1CCC[C@@H]1NC(=O)[C@H]1CCC[C@@H]1NC(=O)C[C@H](CCCNC(=N)N)NC(=O)[C@H]1CCC[C@@H]1NC(=O)[C@H]1CCC[C@@H]1N    464
7. NC(=O)[C@H]1CCC[C@@H]1NC(=O)[C@H]1CCC[C@@H]1NC(=O)C[C@H](Cc1c[nH]c2ccccc12)NC(=O)[C@H]1CCC[C@@H]1NC(=O)[C@H]1CCC[C@@H]1NC(=O)C[C@H](CO)NC(=O)[C@H]1CCC[C@@H]1NC(=O)[C@H]1CCC[C@@H]1N    41
8. C[C@@H](CC(=O)N[C@H]1CCC[C@@H]1C(=O)N[C@H]1CCC[C@@H]1C(N)=O)NC(=O)[C@H]1CCC[C@@H]1NC(=O)[C@H]1CCC[C@@H]1NC(=O)C[C@@H](NC(=O)[C@H]1CCC[C@@H]1NC(=O)[C@H]1CCC[C@@H]1N)[C@@H](C)O    392
9. CSCC[C@@H](CC(=O)N[C@H]1CCC[C@@H]1C(=O)N[C@H]1CCC[C@@H]1C(=O)N[C@H](CC(=O)N[C@H]1CCC[C@@H]1C(=O)N[C@H]1CCC[C@@H]1C(N)=O)Cc1ccccc1)NC(=O)[C@H]1CCC[C@@H]1NC(=O)[C@H]1CCC[C@@H]1N    74
10. CC(C)[C@@H](CC(=O)N[C@H]1CCC[C@@H]1C(=O)N[C@H]1CCC[C@@H]1C(N)=O)NC(=O)[C@H]1CCC[C@@H]1NC(=O)[C@H]1CCC[C@@H]1NC(=O)C[C@H](CO)NC(=O)[C@H]1CCC[C@@H]1NC(=O)[C@H]1CCC[C@@H]1N    299
11. CSCC[C@@H](CC(=O)N[C@H]1CCC[C@@H]1C(=O)N[C@H]1CCC[C@@H]1C(=O)N[C@H](CC(=O)N[C@H]1CCC[C@@H]1C(=O)N[C@H]1CCC[C@@H]1C(N)=O)C(C)C)NC(=O)[C@H]1CCC[C@@H]1NC(=O)[C@H]1CCC[C@@H]1N    342
12. CC[C@H](C)[C@@H](CC(=O)N[C@H]1CCC[C@@H]1C(=O)N[C@H]1CCC[C@@H]1C(=O)N[C@@H](CCSC)CC(=O)N[C@H]1CCC[C@@H]1C(=O)N[C@H]1CCC[C@@H]1C(N)=O)NC(=O)[C@H]1CCC[C@@H]1NC(=O)[C@H]1CCC[C@@H]1N    211
13. CC[C@H](C)[C@@H](CC(=O)N[C@H]1CCC[C@@H]1C(=O)N[C@H]1CCC[C@@H]1C(N)=O)NC(=O)[C@H]1CCC[C@@H]1NC(=O)[C@H]1CCC[C@@H]1NC(=O)C[C@H](CC(C)C)NC(=O)[C@H]1CCC[C@@H]1NC(=O)[C@H]1CCC[C@@H]1N    67
14. CC(C)[C@@H](CC(=O)N[C@H]1CCC[C@@H]1C(=O)N[C@H]1CCC[C@@H]1C(N)=O)NC(=O)[C@H]1CCC[C@@H]1NC(=O)[C@H]1CCC[C@@H]1NC(=O)C[C@@H](NC(=O)[C@H]1CCC[C@@H]1NC(=O)[C@H]1CCC[C@@H]1N)[C@@H](C)O    208
15. CC(C)[C@@H](CC(=O)N[C@H]1CCC[C@@H]1C(=O)N[C@H]1CCC[C@@H]1C(N)=O)NC(=O)[C@H]1CCC[C@@H]1NC(=O)[C@H]1CCC[C@@H]1NC(=O)C[C@H](Cc1ccccc1)NC(=O)[C@H]1CCC[C@@H]1NC(=O)[C@H]1CCC[C@@H]1N    157
